- PROCEDURE TEXT: Phase 1 single ascending dose plasma pharmacokinetics
- Format: in vivo, human
- CONDITION DETAILS: both sexes, human, plasma, oral, 5 mg, Cohort 1, 5 mg single dose, fed, median; read-out: T1/2 (converted)
MEASUREMENT KIND: half-life (h)
The reply should contain only the number, in h.

// half-life lookup, key: C=CC(=O)N1CCC[C@@H](c2c(F)cc(C(N)=O)c3[nH]c4c(c23)CCCCC4)C1 2.77

----------
- PROCEDURE TEXT: Solubility testing in vehicle, HPLC (Form III)
- Assay type: physicochemical
- CONDITION DETAILS: aqueous with cosolvent or surfactant or cyclodextrin, thermodynamic from solid; Cremophor RH40; 45° C.; 4 h; loading 50 mg/mL
MEASUREMENT KIND: solubility at 4 h (mg/mL)
Write down the numeric answer in mg/mL and omit the unit.

Return reported solubility at 4 h; argument: C=CC(=O)N1CCC[C@@H](c2c(F)cc(C(N)=O)c3[nH]c4c(c23)CCCCC4)C1 18.6

Reference for the values: patent US20250243176A1
